# PROTOCOL TEXT: refractive index (Na D-line) (dimensionless); xn = mol fraction of the nth substance listed
# MEASUREMENT CONDITIONS: 298.15 K; 101 kPa; Liquid; Standard Abbe refractometry; x2 = 0.4999
Reported refractive index values for a set of compounds
REPORTED ENDPOINT: refractive index

>>> measured("COCCO [2-methoxyethan-1-ol] + c1ccccc1")
1.4486
>>> measured("CC#N [acetonitrile] + c1ccccc1")
1.4378
>>> measured("COCCO [2-methoxyethan-1-ol] + Cc1ccccc1")
1.453
>>> measured("CC#N [acetonitrile] + Cc1ccccc1")
1.4457

* * *

# MEASUREMENT CONDITIONS: 298.15 K; 101.33 kPa; Liquid; Vibrating tube method
REPORTED ENDPOINT: mass density (kg/m3)

>>> measured("CCCCCCCCCCCCCCCC")
770.3
>>> measured("Cc1ccc(C)cc1")
856.78
>>> measured("c1ccccc1")
873.73
>>> measured("Cc1ccccc1")
862.34
>>> measured("COCCO")
959.73
>>> measured("CC#N")
776.64

* * *

# PROTOCOL TEXT: xn = mol fraction of the nth substance listed
# MEASUREMENT CONDITIONS: 298.15 K; 101 kPa; Liquid; Vibrating tube method; x2 = 0.4999
REPORTED ENDPOINT: mass density (kg/m3)

>>> measured("CC#N [acetonitrile] + Cc1ccccc1")
835.99
>>> measured("CC#N [acetonitrile] + c1ccccc1")
838.46
>>> measured("COCCO [2-methoxyethan-1-ol] + c1ccccc1")
912.55
>>> measured("COCCO [2-methoxyethan-1-ol] + Cc1ccccc1")
902.65

* * *

# PROTOCOL TEXT: refractive index (Na D-line) (dimensionless)
# MEASUREMENT CONDITIONS: 298.15 K; 101.33 kPa; Liquid; Standard Abbe refractometry
The following compounds are listed with their measured refractive index values.
REPORTED ENDPOINT: refractive index

>>> measured("COCCO [2-methoxyethan-1-ol]")
1.39981
>>> measured("c1ccccc1 [benzene]")
1.49749
>>> measured("CC#N [acetonitrile]")
1.34143
>>> measured("CCCCCCCCCCCCCCCC [hexadecane]")
1.43225
>>> measured("Cc1ccc(C)cc1 [1,4-dimethylbenzene]")
1.49281
>>> measured("Cc1ccccc1 [toluene]")
1.49367

Every entry's value here was drawn from the NIST ThermoML archive (doi:10.1016/j.fluid.2015.01.002).
